- ASSAY_TARGET: GSK3α (GST-full length GSK3α) (Homo sapiens (Human))
- Sequence (P49840 whole entry): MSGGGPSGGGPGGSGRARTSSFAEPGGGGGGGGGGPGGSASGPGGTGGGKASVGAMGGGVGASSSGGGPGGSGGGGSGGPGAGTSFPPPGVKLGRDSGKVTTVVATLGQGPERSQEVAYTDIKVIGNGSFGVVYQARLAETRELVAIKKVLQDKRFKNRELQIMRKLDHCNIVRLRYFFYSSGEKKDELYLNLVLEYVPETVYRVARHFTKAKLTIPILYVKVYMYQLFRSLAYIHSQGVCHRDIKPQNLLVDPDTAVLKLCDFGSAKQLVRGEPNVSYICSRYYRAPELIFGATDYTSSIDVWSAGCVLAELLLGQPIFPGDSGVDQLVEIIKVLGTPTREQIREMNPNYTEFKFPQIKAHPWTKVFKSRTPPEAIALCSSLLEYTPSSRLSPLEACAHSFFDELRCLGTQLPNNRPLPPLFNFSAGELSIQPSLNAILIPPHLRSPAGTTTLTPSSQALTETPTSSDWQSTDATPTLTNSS
- TEST_PROTOCOL: GSK3α TR-FRET kinase assay
- Assay type: biochemical
- CONDITION_CONTEXT: 1 nM GSK3α, 4 μM ATP, 30 minute preincubation, Table 16; read-out: GSK3-A TR-FRET BIOCHEMICAL (TR-FRET)
RESULT_TYPE: IC50

Example results:
{"columns": ["COMPOUND", "IC50"],
 "data": [
  ["CC[C@]1(c2cccc(-c3cnc4n3CCCC4)c2)C2=C(CC(C)(C)CC2=O)Nc2n[nH]cc21 [Compound 945607]", "≤ 100 nM"],
  ["CC1(C)CC(=O)C2=C(C1)Nc1n[nH]cc1C21CCN(c2ccncn2)CC1 [Compound 874529]", "100 to 1000 nM"],
  ["CC[C@]1(c2cccc(OCC(F)F)c2)C2=C(CC(C)(C)CC2=O)Nc2n[nH]cc21 [Compound 949113]", "1000 to 5000 nM"]
]}

In: IC50 lookup needed for Cn1ccc(S(=O)(=O)N2CCC3(CC2)C2=C(CC(C)(C)NC2=O)Nc2n[nH]cc23)n1 [Compound 943961] , thanks.
Out: ≤ 100 nM

In: IC50 lookup needed for CC[C@@]1(c2ccccc2)C2=C(Nc3n[nH]cc31)[C@@H](F)C(C)(C)CC2=O [Compound 957196] , thanks.
Out: > 5000 nM

----------
- ASSAY_TARGET: GSK3b (GST-full length GSK3b) (Homo sapiens (Human))
- Sequence (P49841 whole entry): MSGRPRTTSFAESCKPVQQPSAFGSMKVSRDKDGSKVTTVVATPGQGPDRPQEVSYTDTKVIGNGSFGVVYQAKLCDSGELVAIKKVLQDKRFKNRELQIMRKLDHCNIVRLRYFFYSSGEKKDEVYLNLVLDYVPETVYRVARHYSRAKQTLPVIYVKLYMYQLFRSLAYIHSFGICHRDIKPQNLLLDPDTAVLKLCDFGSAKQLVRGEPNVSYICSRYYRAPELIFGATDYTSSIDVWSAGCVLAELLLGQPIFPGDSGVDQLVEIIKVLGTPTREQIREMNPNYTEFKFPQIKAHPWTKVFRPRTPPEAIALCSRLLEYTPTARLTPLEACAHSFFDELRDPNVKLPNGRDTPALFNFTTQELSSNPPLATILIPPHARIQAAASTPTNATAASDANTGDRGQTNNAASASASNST
- TEST_PROTOCOL: GSK3b TR-FRET kinase assay
- Format: biochemical
- CONDITION_CONTEXT: 1 nM GSK3b, 2 μM ATP, 30 minute preincubation, Table 16; read-out: GSK3-B TR-FRET BIOCHEMICAL (TR-FRET)
The entries below are paired with their reported IC50.

Example results:
{"columns": ["COMPOUND", "IC50"],
 "data": [
  ["O=C1C[C@@]2(CCOC2)CC2=C1C1(CCOCC1)c1c[nH]nc1N2", "100 to 1000 nM"],
  ["Cn1ccc(S(=O)(=O)N2CCC3(CC2)C2=C(Nc4n[nH]cc43)[C@@H](F)C(C)(C)CC2=O)n1", "100 to 1000 nM"]
]}

Consider now this further compound.
In: Provide the documented IC50 with GSK3b (GST-full length GSK3b) (Homo sapiens (Human)) as the system for CCC1(c2cccc(-c3cncn3C(C)C)c2)C2=C(CC(C)(C)CC2=O)Nc2n[nH]cc21 (stereo not drawn)
Out: ≤ 100 nM

----------
- ASSAY_TARGET: GSK3b (GST-full length GSK3b) (Homo sapiens (Human))
- TEST_PROTOCOL: GSK3b TR-FRET kinase assay
- Assay type: biochemical
- CONDITION_CONTEXT: 1 nM GSK3b, 2 μM ATP, 30 minute preincubation; geometric mean; read-out: GSK3-B TR-FRET BIOCHEMICAL (TR-FRET); GMean; IC50
pIC50: −log10 of the molar value.
RESULT_TYPE: pIC50

Example results:
{"columns": ["MOLECULE", "ASSAY_TARGET", "pIC50"],
 "data": [
  ["CCC1(c2cccc(-c3ccnc(C)c3)c2)C2=C(CC(C)(C)CC2=O)Nc2n[nH]cc21 (stereo not shown) [Compound 840857]", "GSK3b (GST-full length GSK3b) (Homo sapiens (Human))", "6.00 to 7.00"],
  ["CCC1(c2cccc(C(F)(F)F)c2)C2=C(Nc3n[nH]cc31)C(F)C(C)(C)CC2=O (single isomer, unassigned) [Compound 837753]", "GSK3b (GST-full length GSK3b) (Homo sapiens (Human))", "< 5.30"],
  ["CC[C@@]1(c2cccc(-c3ccnc4cc(F)ccc34)c2)C2=C(CC(C)(C)NC2=O)Nc2n[nH]cc21 [Compound 948519]", "GSK3b (GST-full length GSK3b) (Homo sapiens (Human))", "< 5.30"]
]}

In: pIC50 lookup needed for CC[C@@]1(c2ccccc2)C2=C(CC3(CCCC3)CC2=O)Nc2n[nH]cc21 [Compound 789562] , thanks.
Out: 6.00 to 7.00

In: pIC50 lookup needed for CCC1(c2cccc(Br)c2)C2=C(CC(C)(C)C(F)C2=O)Nc2n[nH]cc21 (mixture of isomers) [Compound 826764] , thanks.
Out: 6.00 to 7.00

In: pIC50 lookup needed for CC[C@@]1(c2cccc(-c3ccnc(C)c3)c2)C2=C(CC(C)(C)NC2=O)Nc2n[nH]c(F)c21 [Compound 949012] , thanks.
Out: 6.00 to 7.00

In: pIC50 lookup needed for CC[C@@]1(c2cccc(S(=O)(=O)C(C)C)c2)C2=C(CC(C)(C)NC2=O)Nc2n[nH]c(C(F)(F)F)c21 [Compound 948423] , thanks.
Out: 6.00 to 7.00

In: pIC50 lookup needed for CCC1(c2cccc(N(C)C(C)=O)c2)C2=C(CC(C)(C)CC2=O)Nc2n[nH]cc21 (stereo not shown) [Compound 801319] , thanks.
Out: ≥ 7.00

All figures here come from patent US20250313563A1.
